- System name: anion binding site on IL-1ra (Homo sapiens, UniProt P18510)
- Sequence (P18510 with tags, fused parts or gaps): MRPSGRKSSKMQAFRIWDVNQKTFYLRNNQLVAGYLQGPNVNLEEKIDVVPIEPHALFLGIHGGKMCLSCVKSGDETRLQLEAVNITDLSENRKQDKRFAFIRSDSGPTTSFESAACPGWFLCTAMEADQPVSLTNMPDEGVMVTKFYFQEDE
- Experimental protocol: biochemical
- Conditions: K^dL, Kd of citrate (y-intercept of K^dLapp plot), phosphate competition experiment, data not shown
Assay metric: pKd
Give bare numbers, as −log10 of the molar value.

// compound O=C(O)CC(O)(CC(=O)O)C(=O)O [citrate] , assay anion binding site on IL-1ra (Homo sapiens, UniProt P18510), pKd value: 2.30

----------
- System name: anion binding site on IL-1ra (Homo sapiens, UniProt P18510)
- Experimental protocol: biochemical
- Conditions: K^dL, Kd of citrate (y-intercept of K^dLapp plot), pyrophosphate competition experiment
Assay metric: pKd
Numbers only, as −log10 of the molar value.

// molecule O=C(O)CC(O)(CC(=O)O)C(=O)O [citrate] , assay anion binding site on IL-1ra (Homo sapiens, UniProt P18510), pKd value: 2.41

----------
- System name: UniProt:P18510
Assay metric: pKd
Give bare numbers, as −log10 of the molar value.

pKd in this record for O=C(O)CC(O)(CC(=O)O)C(=O)O [citrate] : 2.41
